Each recorded value in this set is attributed to patent US20230105212A1.

Assay: Pharmacokinetics test in Balb/C mice
Type: in vivo
Conditions: male, mouse, po, p.o. 5 mg/kg, plasma, read-out: Curve area AUC0−t
Catalogue of compounds with associated AUC(0-t)
property.label: AUC(0-t)

compound: COc1nc(-c2cccc(-c3cccc(NC(=O)c4nc5c(n4C)CCN(C)C5)c3Cl)c2Cl)ccc1CN1CC2(CC(NC(C)=O)C2)C1 [Embodiment 234]
observed: 273 ng·h/mL

compound: COc1nc(-c2cccc(-c3cccc(NC(=O)c4nc5c(n4C)CCN(C)C5)c3Cl)c2Cl)ccc1CN1CC2(C1)CN(C(=O)C(C)C)C2 [Embodiment 186]
observed: 537 ng·h/mL

compound: COc1nc(-c2cccc(-c3cccc(NC(=O)c4nc5c(n4C)CCN(C)C5)c3Cl)c2Cl)ccc1CN[C@H]1CCOC[C@@H]1O (relative stereo) [Embodiment 175]
observed: 1630 ng·h/mL
